- target_of_assay: human recombinant serotonin (5-Hydroxytryptamine) 5-HT2C receptor (Homo sapiens)
- Construct: expressed in transfected cells; host or cells: Chinese hamster ovary (CHO-K1) cells
- Sequence (P28335 33-458): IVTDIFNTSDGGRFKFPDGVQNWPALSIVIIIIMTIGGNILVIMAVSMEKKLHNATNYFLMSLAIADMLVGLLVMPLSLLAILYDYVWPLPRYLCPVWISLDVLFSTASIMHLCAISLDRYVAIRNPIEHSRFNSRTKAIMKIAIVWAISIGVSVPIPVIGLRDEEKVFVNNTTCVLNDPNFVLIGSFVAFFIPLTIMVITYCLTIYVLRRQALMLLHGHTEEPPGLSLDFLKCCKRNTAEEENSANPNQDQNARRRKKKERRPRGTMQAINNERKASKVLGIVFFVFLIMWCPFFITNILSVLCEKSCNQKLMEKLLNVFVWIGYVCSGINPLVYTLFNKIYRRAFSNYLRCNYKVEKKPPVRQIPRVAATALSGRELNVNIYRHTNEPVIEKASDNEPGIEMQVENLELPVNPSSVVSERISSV
- test_summary: Serotonin 5-HT2C radioligand binding ([3H]Mesulergine)
- condition_summary: compound at 0.1 μM; read-out: Inhibition of ligand binding, Serotonin 5-HT2C (percent inhibition of specific binding)
Parameter inhibition at 0.1 µM: see the listing below.
reported_property: inhibition at 0.1 µM (%)

>>> numeric_result("Cc1ccc2c(c1)c1c(n2CC(O)(c2ccncc2)C(C)C)CCN(C)C1 (centres unmarked)")
47
>>> numeric_result("CCN1CCc2c(c3cc(C)ccc3n2CC(O)c2ccc(C)cc2)C1 (racemic)")
43
>>> numeric_result("C/C(=C\\n1c2c(c3cc(Cl)ccc31)CN(C)C(C)C2)c1ccc(C)nc1 (centres unmarked)")
100
>>> numeric_result("C/C(=C\\n1c2c(c3cc(C)ccc31)CN(C)C(C)C2)c1ccc(C)nc1 (centres unmarked)")
92
>>> numeric_result("COc1ccc([C@](C)(O)Cn2c3c(c4cc(C)ccc42)CN(C)CC3)cc1")
94
>>> numeric_result("COc1ccc([C@@](C)(O)Cn2c3c(c4cc(C)ccc42)CN(C)CC3)cc1")
81
>>> numeric_result("C/C(=C\\n1c2c(c3cccc(F)c31)CN(C)CC2)c1ccncc1")
81
>>> numeric_result("Cc1ccc2c(c1)c1c(n2CC(C)(O)c2ccncn2)CCN(C)C1 (centres unmarked)")
16
>>> numeric_result("C/C(=C\\n1c2c(c3ccc(Cl)cc31)CN(C)CC2)c1ccncc1")
94
>>> numeric_result("C/C(=C\\n1c2c(c3cc(F)ccc31)CN(C)CC2)c1ccncc1")
83
>>> numeric_result("C/C(=C\\n1c2c(c3cc(C)ccc31)CN(C)CC2)c1ccc(F)cc1F")
96
>>> numeric_result("C/C(=C\\n1c2c(c3cc(C(C)C)ccc31)CN(C)CC2)c1ccncc1")
54
>>> numeric_result("C/C(=C\\n1c2c(c3cc(C)ccc31)CN(C)C(C)C2)c1ccc(F)cc1 (centres unmarked)")
98
>>> numeric_result("C/C(=C\\n1c2c(c3ccc(F)cc31)CN(C)CC2)c1ccc(C)nc1")
31
>>> numeric_result("C/C(=C/n1c2c(c3cc(C)ccc31)CN(C)CC2)c1ccncc1")
95
>>> numeric_result("C/C(=C\\n1c2c(c3cc(C)ccc31)CN(C)CC2)c1ccc(F)cc1")
101
>>> numeric_result("Cc1ccc2c(c1)c1c(n2/C=C(/c2ccncc2)C(C)(C)C)CCN(C)C1")
86
>>> numeric_result("CC/C(=C/n1c2c(c3cc(Cl)ccc31)CN(C)CC2)c1ccncc1")
94
>>> numeric_result("CCC(O)(Cn1c2c(c3cc(Cl)ccc31)CN(C)CC2)c1ccncc1 (centres unmarked)")
43
>>> numeric_result("C/C(=C/n1c2c(c3cc(C)ccc31)CN(C)CC2)c1ccc(F)cc1F")
99
>>> numeric_result("CCN1CCc2c(c3ccccc3n2/C=C(\\C)c2ccncc2)C1")
12
>>> numeric_result("CC/C(=C/n1c2c(c3cc(C)ccc31)CN(C)CC2)c1ccncc1")
96
>>> numeric_result("C/C(=C\\n1c2c(c3cc(Cl)ccc31)CN(C)CC2)c1ccncc1")
85
>>> numeric_result("C/C(=C\\n1c2c(c3cc(OC(F)(F)F)ccc31)CN(C)CC2)c1ccncc1")
18
>>> numeric_result("C/C(=C\\n1c2c(c3cc(F)c(F)cc31)CN(C)CC2)c1ccc(C)nc1")
69
>>> numeric_result("C/C(=C\\n1c2c(c3cc(C(F)(F)F)ccc31)CN(C)CC2)c1ccncc1")
60
>>> numeric_result("C/C(=C\\n1c2c(c3ccccc31)CN(C)CC2)c1ccc(C)nc1")
52
>>> numeric_result("C/C(=C\\n1c2c(c3cc(C)ccc31)CN(C)CC2)c1ccccn1")
91
>>> numeric_result("Cc1ccc2c(c1)c1c(n2CC(C)(O)c2cnccn2)CCN(C)C1 (centres unmarked)")
17
>>> numeric_result("CN1CCc2c(c3cc(Cl)ccc3n2CC(C)(O)c2ccc(F)cc2)C1 (centres unmarked)")
88
>>> numeric_result("C/C(=C\\n1c2c(c3ccc(Cl)cc31)CN(C)CC2)c1ccc(C)nc1")
49
>>> numeric_result("C/C(=C\\n1c2c(c3cccc(F)c31)CN(C)CC2)c1ccc(C)nc1")
29
>>> numeric_result("CCN1CCc2c(c3cc(C)ccc3n2/C=C(\\C)c2ccncc2)C1")
55
>>> numeric_result("C/C(=C\\n1c2c(c3cc(C)ccc31)CN(C)CC2)c1ccncn1")
70
>>> numeric_result("C/C(=C\\n1c2c(c3cc(C)ccc31)CN(C)C(C)C2)c1ccncc1 (centres unmarked)")
94

###

- target_of_assay: human dopamine D2L receptor (Homo sapiens, UniProt P14416)
- Sequence (P14416 whole entry): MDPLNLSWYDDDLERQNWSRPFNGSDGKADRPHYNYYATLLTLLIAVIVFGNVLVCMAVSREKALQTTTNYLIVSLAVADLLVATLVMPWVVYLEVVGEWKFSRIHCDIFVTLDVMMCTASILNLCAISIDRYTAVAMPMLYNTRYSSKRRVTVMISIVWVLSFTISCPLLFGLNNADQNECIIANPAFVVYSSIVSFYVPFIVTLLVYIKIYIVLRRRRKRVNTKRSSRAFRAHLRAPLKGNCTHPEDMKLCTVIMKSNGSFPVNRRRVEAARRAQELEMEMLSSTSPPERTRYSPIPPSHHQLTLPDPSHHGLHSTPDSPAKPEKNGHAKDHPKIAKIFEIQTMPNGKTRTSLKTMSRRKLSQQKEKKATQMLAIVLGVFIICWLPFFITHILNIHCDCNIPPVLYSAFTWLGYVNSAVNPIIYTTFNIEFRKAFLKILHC
- test_summary: Dopamine D2L radioligand binding ([3H]Spiperone)
- condition_summary: percent inhibition of specific binding; compound at 1 μM; read-out: Inhibition of ligand binding, Dopamine D2L
Parameter inhibition at 1 µM: see the listing below.
reported_property: inhibition at 1 µM (%)

>>> numeric_result("Cc1ccc2c(c1)c1c(n2CC(C)(O)c2ccncn2)CCN(C)C1 (centres unmarked) [Compound 197]")
14
>>> numeric_result("COc1ccc([C@](C)(O)Cn2c3c(c4cc(C)ccc42)CN(C)CC3)cc1 [Compound 191]")
15
>>> numeric_result("C/C(=C\\n1c2c(c3cc(Cl)ccc31)CN(C)CC2)c1ccc(F)c(F)c1 [Compound 98]")
78
>>> numeric_result("C/C(=C\\n1c2c(c3ccccc31)CN(C)CC2)c1ccc(F)cc1 [Compound 205]")
98
>>> numeric_result("CN1CCc2c(c3cc(Cl)ccc3n2CC(O)(c2ccc(F)cc2)C2CCC2)C1 (centres unmarked) [Compound 177]")
33
>>> numeric_result("CN1CCc2c(c3cc(Cl)ccc3n2CC(O)c2ccncc2)C1 (centres unmarked) [Compound 183]")
15
>>> numeric_result("C/C(=C\\n1c2c(c3cc(Cl)ccc31)CN(C)C(C)C2)c1ccc(C)nc1 (centres unmarked) [Compound 273]")
12
>>> numeric_result("C/C(=C\\n1c2c(c3cc(C)ccc31)CN(CCO)CC2)c1ccncc1 [Compound 332]")
79
>>> numeric_result("C/C(=C\\n1c2c(c3cc(Cl)ccc31)CN(C)C(C)C2)c1ccncc1 (centres unmarked) [Compound 275]")
92
>>> numeric_result("CN1CCc2c(c3cc(Cl)ccc3n2C/C(=C\\CCO)c2ccc(F)cc2)C1 [Compound No. 348]")
18
>>> numeric_result("C/C(=C\\n1c2c(c3cc(Cl)c(Cl)cc31)CN(C)CC2)c1ccncc1 [Compound 243]")
96
>>> numeric_result("CC(C)/C(=C/n1c2c(c3cc(Cl)ccc31)CN(C)CC2)c1ccncc1 [Compound 265]")
73
>>> numeric_result("COc1ccc(C(C)(O)Cn2c3c(c4cc(C)ccc42)CN(C)CC3)cc1 (centres unmarked) [Compound 174]")
34
>>> numeric_result("Cc1ccc2c(c1)c1c(n2/C=C(\\c2ccncc2)C(C)C)CCN(C)C1 [Compound 264]")
49
>>> numeric_result("CN1CCc2c(c3cc(Cl)ccc3n2CC(C)(O)c2cnccn2)C1 (centres unmarked) [Compound 199]")
16
>>> numeric_result("C/C(=C\\n1c2c(c3cccc(Cl)c31)CN(C)CC2)c1ccncc1 [Compound 222]")
82
>>> numeric_result("C/C(=C\\n1c2c(c3cc(Cl)ccc31)CN(C)CC2)c1cc(Cl)cc(Cl)c1 [Compound 215]")
36
>>> numeric_result("CN1CCc2c(c3cc(Cl)ccc3n2C/C=C/c2ccc(F)cc2)C1 [Compound 126]")
84
>>> numeric_result("C/C(=C\\n1c2c(c3cc(C)ccc31)CN(C)CC2)c1ccc(F)cc1 [Compound 87]")
97
>>> numeric_result("CCC(O)(Cn1c2c(c3cc(Cl)ccc31)CN(C)CC2)c1ccncc1 (centres unmarked) [Compound 195]")
17
>>> numeric_result("C/C(=C/n1c2c(c3cc(C)ccc31)CN(C)CC2)c1ccc(F)cc1F [Compound 274]")
56
>>> numeric_result("C/C(=C/n1c2c(c3cc(Cl)ccc31)CN(C)CC2)c1cc(F)c(F)cc1Cl [Compound 240]")
34
>>> numeric_result("C/C(=C/n1c2c(c3cc(C)ccc31)CN(C)CC2)c1cccc(F)c1 [Compound 225]")
43
>>> numeric_result("COc1cccc2c3c(n(CC(C)(O)c4ccncc4)c12)CCN(C)C3 (centres unmarked) [Compound 343]")
9
>>> numeric_result("C/C(=C\\n1c2c(c3cccc(Cl)c31)CN(C)CC2)c1ccc(C)nc1 [Compound 252]")
13
>>> numeric_result("CN1CCc2c(c3c(Cl)c(Cl)ccc3n2CC(C)(O)c2ccncc2)C1 (centres unmarked) [Compound 190]")
-15
>>> numeric_result("Cc1ccc2c(c1)c1c(n2CC(C)(O)c2cccnc2)CCN(C)C1 (centres unmarked) [Compound 60]")
6
>>> numeric_result("COc1ccc([C@@](C)(O)Cn2c3c(c4cc(C)ccc42)CN(C)CC3)cc1 [Compound 192]")
34
>>> numeric_result("C=C(Cn1c2c(c3cc(Cl)ccc31)CN(C)CC2)c1ccc(OC)c(F)c1 [Compound 140]")
57
>>> numeric_result("Cc1ccc(C(O)Cn2c3c(c4cc(C)ccc42)CN(C)CC3)cc1 (racemic) [Compound 43]")
65
>>> numeric_result("CN1CCc2c(c3cc(Cl)ccc3n2/C=C(/c2ccc(F)cc2)C2CCC2)C1 [Compound 206]")
76
>>> numeric_result("CN1CCc2c(c3cc(Cl)ccc3n2CC(C)(O)c2ccncn2)C1 (centres unmarked) [Compound 198]")
5
>>> numeric_result("C/C(=C\\n1c2c(c3cc(C)ccc31)CN(C1CC1)CC2)c1ccncc1 [Compound 292]")
71
>>> numeric_result("CCOC(=O)/C=C(/Cn1c2c(c3cc(C)ccc31)CN(C)CC2)c1ccccc1 [Compound No. 347]")
27
>>> numeric_result("Cc1ccc2c(c1)c1c(n2CC(O)c2ccc(F)cc2)CCN(C)C1 (centres unmarked) [Compound 172]")
36
